Target: Cytochrome P450 3A4 (Homo sapiens, UniProt P08684);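 note: confirmatory qHTS run detecting inhibitors and substrates of CYP3A4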
Sequence (P08684 whole entry): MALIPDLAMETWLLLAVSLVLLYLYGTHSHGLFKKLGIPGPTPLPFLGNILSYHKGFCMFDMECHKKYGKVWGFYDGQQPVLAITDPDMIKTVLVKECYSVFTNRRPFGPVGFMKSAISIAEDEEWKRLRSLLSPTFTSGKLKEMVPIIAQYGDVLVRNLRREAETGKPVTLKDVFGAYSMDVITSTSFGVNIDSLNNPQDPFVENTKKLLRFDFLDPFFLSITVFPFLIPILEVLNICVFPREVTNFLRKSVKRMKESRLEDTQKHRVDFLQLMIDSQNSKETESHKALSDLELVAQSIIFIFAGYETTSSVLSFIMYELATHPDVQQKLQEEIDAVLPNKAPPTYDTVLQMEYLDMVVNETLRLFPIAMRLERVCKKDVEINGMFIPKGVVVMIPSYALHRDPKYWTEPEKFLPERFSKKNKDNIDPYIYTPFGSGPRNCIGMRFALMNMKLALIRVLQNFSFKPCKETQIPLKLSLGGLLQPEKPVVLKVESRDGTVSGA
Conditions: Potency
# AC50 per entry

| COMPOUND | TESTED_TARGET | AC50 |
| --- | --- | --- |
| CCN1C[C@@]2(C)CC[C@@H](OC)[C@@]34C2C(O)[C@@]2(OCO[C@]25CC(OC)C2C[C@@]3(O)C5C2O)C14 (some centres undefined) | Cytochrome P450 3A4 (Homo sapiens, UniProt P08684) | 39.8 µM (inconclusive) |
| CC1CCC2C(=O)N3C(CCC(C)[C@H]3c3ccccc3Br)C(=O)N2C1c1ccccc1Br (some centres undefined) | Cytochrome P450 3A4 (Homo sapiens, UniProt P08684) | 1.26 µM (inconclusive) |
| COC(C)C(O)(C(=O)OC1=CCN2CC[C@H](O)[C@H]12)C(C)C (some centres undefined) | Cytochrome P450 3A4 (Homo sapiens, UniProt P08684) | 50.1 µM (inconclusive) |
| CCC(=O)[C@]12O[C@@]3(C4C(=O)OCCC41)N(CC)C(C)=C(C(=O)OC)C(c1ccccc1)N3C2=O (some centres undefined) | Cytochrome P450 3A4 (Homo sapiens, UniProt P08684) | 5.01 µM (inconclusive) |
